The reported numbers originate from patent US6677336B2.

# PROTOCOL_DETAILS: Metabolic stability in human liver S-9 fractions
# ASSAY_SETUP: human liver S9, 30 min at 37 C, 10 μM; % parent remaining divided by average % ranolazine remaining (57%)
PARAMETER: Liver S9 Parent Present relative to Ranolazine

# COMPOUND, ASSAY_VALUE
records = [
    ("COc1ccccc1OCC(O)CN1CCN(CC(=O)Nc2c(C)cccc2C)CC1 (racemic) [Ranolazine, reference compound]", 1.0),
]

P. COc1ccccc1OCC(O)CN1C[C@@H](C)N(CC(=O)Nc2c(C)cccc2C)C[C@@H]1C (stereo partly shown)
Q. COc1ccccc1OCC(O)CN1CCN(CC(=O)Nc2c(C)cccc2C)C2CCCCC21 (stereo not shown)
R. COc1ccccc1OCC(O)CN1CCN(CC(=O)Nc2c(C)cccc2C)C(=O)C1 (stereo not shown)
Order the items by recorded Liver S9 Parent Present relative to Ranolazine; the first position goes to the largest value. Put the labels in the requested order and list them out.
P, Q, R
(P: 1.20, Q: 0.45, R: 0.15)
